# PROCEDURE_SUMMARY: MDA-MB-436 breast carcinoma cell growth inhibition, synergistic combos for chromothripsis tumors, BGB or cisplatin combos (AID 1671458);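 note: cells exposed for 96 hours; 0% = vehicle DMSO and 100% = killing by high DMSO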
# CONDITION_CONTEXT: MDA-MB-436 breast carcinoma growth inhibition, drug combinations; measured here: cisplatin combination; at 0.5 µM; stronger effect = higher value
QUANTITY_MEASURED: inhibition (%)

CN1CCN(c2c(F)cc3c(=O)c(C(=O)O)cn4c3c2OCN4C)CC1 : -29.6
CN(N=O)C(=O)NC1C(O)OC(CO)C(O)C1O (configuration not stated) : -11.2
CC1(C(=O)O)CCC2(C)CCC3(C)C(=CC(=O)C4C5(C)CCC(OC(=O)CCC(=O)O)C(C)(C)C5CCC43C)C2C1 (configuration not stated) : -40.5
N=c1ccn2c(n1)O[C@H]1[C@H](O)[C@@H](CO)O[C@H]12 : 0.616
CCOC(=O)Nc1ccc(NCc2ccc(F)cc2)nc1N : -28
Nc1ccc2cc3ccc(N)cc3nc2c1 : -19.4
O=c1c(O)c(-c2ccc(O)c(O)c2)oc2cc(O)ccc12 : -24.9
CN1CCN(c2c(F)cc3c(=O)c(C(=O)O)cn(CCF)c3c2F)CC1 : -0.921
CCn1nc(C(=O)O)c(=O)c2cc3c(cc21)OCO3 : -23.3
CNC1CCCN(c2c(F)cc3c(=O)c(C(=O)O)cn(C4CC4)c3c2OC)C1 (configuration not stated) : -36.1
C[C@@H](CN1CC(=O)NC(=O)C1)N1CC(=O)NC(=O)C1 : -18.8
O=c1cc[nH]c(=O)[nH]1 : -40.8

---

Examples of molecules with documented inhibition follow.
# PROCEDURE_SUMMARY: human astrocyte viability loss, single and combined drugs, cytotoxicity control for chromothriptic childhood tumor combination screen, cell-based, BGB or cisplatin IC20 combos (AID 1671460);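 note: cells exposed to compounds for 96 hours before viability readout; 0% = vehicle and 100% = killing control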
# CONDITION_CONTEXT: Human astrocytes, drug combinations, measured here: combo with cisplatin IC20, at 0.5 µM, stronger effect = higher value
QUANTITY_MEASURED: inhibition (%)

COc1c2ccoc2cc2oc(=O)ccc12 : 7.69
O=c1cc[nH]c(=O)[nH]1 : -31.7
CC1(C(=O)O)CCC2(C)CCC3(C)C(=CC(=O)C4C5(C)CCC(OC(=O)CCC(=O)O)C(C)(C)C5CCC43C)C2C1 (stereo unspecified) : -13.4
C[C@@H](CN1CC(=O)NC(=O)C1)N1CC(=O)NC(=O)C1 : 12.3
O=c1[nH]c(=O)n([C@H]2C[C@H](O)[C@@H](CO)O2)cc1C(F)(F)F : -19.9
O=c1c(O)c(-c2ccc(O)c(O)c2)oc2cc(O)ccc12 : 26.6
Nc1ccc2cc3ccc(N)cc3nc2c1 : -30.9
CCn1nc(C(=O)O)c(=O)c2cc3c(cc21)OCO3 : 10.9
Nc1ncn([C@H]2C[C@H](O)[C@@H](CO)O2)c(=O)n1 : 20.4
O=c1[nH]c(=O)n([C@H]2C[C@H](O)[C@@H](CO)O2)cc1Br : 12.5
N=c1ccn2c(n1)O[C@H]1[C@H](O)[C@@H](CO)O[C@H]12 : 18.2

---

# PROCEDURE_SUMMARY: differential killing of epithelial or mesenchymal cells, primary screen, imaging, PC-3E GFP, TEM4-18 mCherry, co-culture (AID 1345086);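 note: normalised mesenchymal count divided by normalised epithelial count so high means epithelial killing; cells exposed to compound for 72 h before imaging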
# CONDITION_CONTEXT: imaging cell counts, at 1 µM, actives lie on both sides, counts scaled to control wells, 1 = unselective
Lab note: anything with red/green cell ratio (normalised) below 0.8 is marked condition met; values at 0.8 or higher are marked condition not met.

CC(=O)[C@@]1(O)CCC2C3CCC4=CC(=O)CC[C@]4(C)C3CC[C@@]21C (stereo not given in full) : condition not met
CC1CC(OC(=O)c2ccccc2O)CC(C)(C)C1 (stereo not given) : condition not met
CC(C)=CCc1c2c(c3occ(-c4ccc(O)c(O)c4)c(=O)c3c1O)C=CC(C)(C)O2 : condition met
CNC1CCCN(c2c(F)cc3c(=O)c(C(=O)O)cn(C4CC4)c3c2OC)C1 (stereo not given) : condition not met

---

# PROCEDURE_SUMMARY: sensitizers of A549 cells to miR-34 induction, primary screen, imaging, A549 dox-inducible miR-34, nuclei and caspase counts (AID 1347080)
# CONDITION_CONTEXT: A549 miR-34 inducible, Hoechst nuclei count, 48 h; measured here: relative caspase fold change +Dox/-Dox
Peptide text beside a SMILES is read from it.
Decision: fold change compared against 1; not below it gives yes, below it gives no.

CCN(CC)CCOc1ccc2c(c1)C(=O)c1cc(OCCN(CC)CC)ccc1-2 : yes
CN(C)c1nc(N)c(C(=O)N=C(N)N)nc1Cl : yes
CNC1CCCN(c2c(F)cc3c(=O)c(C(=O)O)cn(C4CC4)c3c2OC)C1 (stereo not drawn) : no
CCOC(=O)Nc1ccc2c(c1)N(C(=O)CCN1CCOCC1)c1ccccc1S2 : yes
Cc1c(C)c2c(c(C)c1O)CC[C@@](C)(CCC[C@H](C)CCC[C@H](C)CCCC(C)C)O2 : yes
CN1C(=O)CC(C)(c2ccccc2)C1=O (stereo not drawn) : no
O=C(O)CCC(=O)OC[C@@H](NC(=O)C(Cl)Cl)[C@H](O)c1ccc([N+](=O)[O-])cc1 : yes
CN1CCN(c2c(F)cc3c(=O)c(C(=O)O)cn(CCF)c3c2F)CC1 : yes
COCC(=O)Nc1c(I)c(C(=O)NCC(O)CO)c(I)c(C(=O)N(C)CC(O)CO)c1I (stereo not drawn) : yes
OCc1c[nH]c2ccccc12 : no
Cc1cc2c(cc1CC(=O)c1sccc1S(=O)(=O)Nc1onc(C)c1Cl)OCO2 : no
CCCCNc1ccc(C(=O)OCCOCCOCCOCCOCCOCCOCCOCCOCCOC)cc1 : yes
CC(=O)N[C@@H](CC(=O)O)C(=O)N[C@@H](CCC(=O)O)C(=O)O (Ac-Asp-Glu-OH) : no
CC1(O)CCC(C(C)(C)O)CC1 (stereo not drawn) : no
CN1CCc2c(c3ccccc3n2Cc2ccccc2)C1 : yes
CC(=O)[C@H]1CC[C@H]2[C@@H]3C=CC4=CC(=O)CC[C@@]4(C)[C@@H]3CC[C@]12C : yes
C#C[C@]1(OC(C)=O)CC[C@H]2[C@@H]3CCC4=CC(=O)CC[C@@H]4[C@H]3CC[C@@]21C : yes
C[C@H](O)C(=O)Nc1c(I)c(C(=O)NC(CO)CO)c(I)c(C(=O)NC(CO)CO)c1I : yes
O=C(O)c1ccc(-n2nc(-c3ccccc3O)nc2-c2ccccc2O)cc1 : yes
COc1c(C)c2c(c(O)c1C/C=C(\C)CCC(=O)OCCN1CCOCC1)C(=O)OC2 : yes
O=C1NC(=O)[C@@]2(CCOc3ccc(F)cc32)N1 : yes
O=c1[nH]c2ccccc2n1CCCN1CCN(C(c2ccccc2)c2ccccc2)CC1 : yes
NCCCCCCNS(=O)(=O)c1cccc2c(Cl)cccc12 : no
c1cnc2cc3c(cc2n1)C1CNCC3C1 : yes
COc1ccc2c(c1OC)C(=O)O[C@H]2[C@H]1c2c(cc3c(c2OC)OCO3)CCN1C : yes
O=C(OOC(=O)c1ccccc1)c1ccccc1 : yes
COc1ccccc1N1CCN(CCCCNC(=O)c2ccc(-c3ccc(C(C)=O)cc3)cc2)CC1 : no
CN[C@H](CC(=O)O)C(=O)O : no
CC(C(=O)O)c1ccc2c(c1)CC(=O)c1ccccc1S2 (stereo not drawn) : no
C=C1C[C@]23C[C@@]1(O)CC[C@H]2[C@@]12C=C[C@H](O)[C@@](C)(C(=O)O1)[C@H]2[C@@H]3C(=O)O : no
NCCCCN=C(N)N : yes
CN1CCN(C2Cc3ccccc3Sc3ccc(Cl)cc32)CC1 (stereo not drawn) : no
CN1CC(=O)N/C1=N/C(=O)Nc1cccc(Cl)c1 : yes
C=CCN1C[C@H](C(=O)N(CCCN(C)C)C(=O)NCC)C[C@@H]2c3cccc4[nH]cc(c34)C[C@H]21 : yes
C=C1C[C@H]2[C@@H]3C=C(C)C4=CC(=O)CC[C@]4(C)[C@H]3CC[C@]2(C)[C@@]1(OC(C)=O)C(C)=O : yes
CC[C@H](c1ccc(O)cc1)[C@@H](CC)c1ccc(O)cc1 : no
O=C(Nc1ccc(C(=O)O)c(O)c1)c1ccccc1 : yes
C=CCn1c(=O)n([C@@H]2O[C@H](CO)[C@@H](O)[C@H]2O)c2nc(N)[nH]c(=O)c21 : yes
C=C[C@H]1CN2CC[C@H]1C[C@H]2[C@H](O)c1ccnc2ccc(OC)cc12 : no
CC1(C)CCC(C)(C)c2cc(NC(=O)c3ccc(C(=O)O)cc3)ccc21 : no
O=S(=O)(O)c1cc(I)c(O)c2ncccc12 : no

---

# PROCEDURE_SUMMARY: sensitizers of A549 cells to miR-34 induction, primary screen, imaging, A549 dox-inducible miR-34, nuclei and caspase counts (AID 1347080)
# CONDITION_CONTEXT: A549 miR-34 inducible, Hoechst nuclei count, 48 h; measured here: relative caspase fold change +Dox/-Dox
In this section we review reported fold change values for a set of compounds.
QUANTITY_MEASURED: fold change

CCCCCCCCCCOc1cc2c(=O)c(C(=O)OCC)c[nH]c2cc1OCC : 1.91
Cc1[nH]ccc2c1[nH]c1cc(=O)ccc12 : 1.33
CC(C)(C)C(=O)OCOC(=O)[C@@H]1N2C(=O)[C@@H](NC(=O)[C@H](N)c3ccccc3)[C@H]2SC1(C)C : 0.701
COc1ccc([C@@H]2CC(=O)c3c(O)cc(O[C@@H]4O[C@H](CO[C@@H]5O[C@@H](C)[C@H](O)[C@@H](O)[C@H]5O)[C@@H](O)[C@H](O)[C@H]4O)cc3O2)cc1O : 2.5
CO/N=C(\C(=O)N[C@@H]1C(=O)N2C(C(=O)O)=C(CSc3nc(=O)c(O)nn3C)CSC12)c1csc(N)n1 (some centres undefined) : 1.74
CCCCCCCCCCCCCCCCCCCCCCO : 5.17
CCCCC(CC)COc1ccc(-c2nc(-c3ccc(OC)cc3)nc(-c3ccc(OCC(CC)CCCC)cc3O)n2)c(O)c1 (centres undefined) : 0.849
Cc1cc2nc3ccc(=[N+](C)C)cc-3sc2cc1N : 1.04
NC(N)=NCCC[C@H](N)C(=O)O : 1.65
